study.target: Recombinant STAT6 protein (STAT6(W123-T658)) (Homo sapiens, UniProt P42226)
Construct: STAT6(W123-T658)
Sequence (P42226 123-658, species assumed): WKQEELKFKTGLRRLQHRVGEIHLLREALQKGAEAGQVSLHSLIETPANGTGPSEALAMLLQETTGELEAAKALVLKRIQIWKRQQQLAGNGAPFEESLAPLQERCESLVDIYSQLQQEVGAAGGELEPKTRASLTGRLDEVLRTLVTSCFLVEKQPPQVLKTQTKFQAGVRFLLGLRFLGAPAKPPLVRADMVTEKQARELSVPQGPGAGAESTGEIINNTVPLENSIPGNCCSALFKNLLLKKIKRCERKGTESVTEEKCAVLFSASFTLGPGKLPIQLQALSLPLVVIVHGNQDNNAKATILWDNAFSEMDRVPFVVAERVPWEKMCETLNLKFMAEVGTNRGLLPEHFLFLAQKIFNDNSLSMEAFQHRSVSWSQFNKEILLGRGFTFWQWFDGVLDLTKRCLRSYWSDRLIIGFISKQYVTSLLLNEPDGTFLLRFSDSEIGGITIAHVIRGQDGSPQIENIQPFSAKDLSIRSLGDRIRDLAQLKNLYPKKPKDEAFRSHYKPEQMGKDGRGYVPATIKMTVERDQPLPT
procedure.text: STAT6 Fluorescence Polarization (FP) Assay
test.conditions: STAT6(W123-T658) 250 nM, probe 5-FAM-ApYKPFQDLI-NH2 2 nM, 45-minute incubation
observation.type: IC50

Input line: State the recorded IC50 for this entry: CC1(C(=O)N2CCOCC2)CN(C(=O)[C@@H]2CC[C@@H]3C[C@H]4C[C@H]4C[C@H](NC(=O)c4cc5cc(C(F)(F)P(=O)(O)O)ccc5s4)C(=O)N32)C1
Output line: 3 to 30 µM

Input line: Again, but for Cn1ccc2cncc(C3CN(C(=O)[C@@H]4CC[C@@H]5C[C@H]6C[C@H]6C[C@H](NC(=O)c6cc7cc([C@@H](F)P(=O)(O)O)ccc7s6)C(=O)N54)C3)c21
Output line: 0.3 to 3 µM

Input line: Again, but for Cc1noc(C2CN(C(=O)[C@@H]3CC[C@@H]4C[C@H]5C[C@H]5C[C@H](NC(=O)c5cc6cc(C(F)P(=O)(O)O)ccc6s5)C(=O)N43)C2)n1 (some centres unmarked)
Output line: 3 to 30 µM

Input line: Again, but for O=C(N[C@H]1C[C@@H]2C[C@@H]2C[C@H]2CC[C@@H](C(=O)N[C@H]3CN(c4cccnc4)C[C@@H]3F)N2C1=O)c1cc2cc(CP(=O)(O)O)ccc2s1
Output line: 3 to 30 µM

Input line: Again, but for O=C(N[C@H]1C[C@@H]2C[C@@H]2C[C@H]2CC[C@@H](C(=O)N3CC(N4CCS(=O)(=O)CC4)C3)N2C1=O)c1cc2cc(C(F)(F)P(=O)(O)O)ccc2s1
Output line: 3 to 30 µM
